- MEASURED ON: biotinylated human DLL3 protein expressed as a human IgG1 fusion protein (human) (UniProt Q9NYJ7)
- Sequence (Q9NYJ7 other isoform, or with tags, fused parts or gaps): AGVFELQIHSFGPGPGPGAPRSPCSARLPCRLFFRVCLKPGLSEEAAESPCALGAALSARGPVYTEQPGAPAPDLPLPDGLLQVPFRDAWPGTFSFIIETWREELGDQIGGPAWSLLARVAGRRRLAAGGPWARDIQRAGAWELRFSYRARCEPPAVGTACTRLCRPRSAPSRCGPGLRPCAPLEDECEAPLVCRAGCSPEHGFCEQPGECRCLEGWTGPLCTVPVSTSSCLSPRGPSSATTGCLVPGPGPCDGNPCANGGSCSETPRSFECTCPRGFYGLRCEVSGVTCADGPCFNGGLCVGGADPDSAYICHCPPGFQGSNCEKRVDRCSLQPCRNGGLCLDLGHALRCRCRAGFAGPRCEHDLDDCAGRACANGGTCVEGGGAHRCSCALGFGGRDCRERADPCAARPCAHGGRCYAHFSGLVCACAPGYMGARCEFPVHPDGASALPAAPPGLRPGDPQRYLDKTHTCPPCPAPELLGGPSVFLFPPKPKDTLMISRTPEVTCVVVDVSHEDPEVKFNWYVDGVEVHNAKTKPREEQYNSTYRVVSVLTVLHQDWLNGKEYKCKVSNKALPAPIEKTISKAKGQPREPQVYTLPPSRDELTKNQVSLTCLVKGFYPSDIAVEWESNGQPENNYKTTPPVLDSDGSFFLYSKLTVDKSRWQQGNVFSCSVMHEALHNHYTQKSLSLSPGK
- TEST DETAILS: Octet BLI; biotinylated huDLL3-IgG1 fusion on streptavidin tips; single 50 nM; conditioned medium
PROPERTY MEASURED: pKd
Conceptually, pKd converts a concentration in mol/L into minus its log10.

{"BINDER": "anti-DLL3 trispecific protein 2F09 (protein, part only; not given: anti-CD3 fragment and anti-albumin domain, part only) chain, part: EVQLVESGGGLVQPGGSLTLSCVASGSTSSINAMAWYRRAPGKQRELVAGISSDGSKLYADSVKGRFTISRDNAKNSVYLQMNSLRAEDTAVYYCYYFRTVSGSSMRYWGQGTLVTVSSGGGGSGGGSGGGGSGGGSHHHHHH", "REPORTED RESULT": 8.19}
{"BINDER": "anti-DLL3 trispecific protein 2D06 (protein, part only; not given: anti-CD3 and anti-albumin domains, part only) chain, part: EVQLVESGGGLVQPGGSLTLSCVASGSTSSINAMGWYRRAPGKQRELVAGISSDGSKVYSDSVKGRFTISRDNAKNSVYLQMNSLRAEDTAVYYCYYFRTVSGSSSRYWGQGTLVTVSSGGGGSGGGSGGGGSGGGSHHHHHH", "REPORTED RESULT": 8.18}
{"BINDER": "anti-DLL3 trispecific protein 1B07 (protein, part only; not given: anti-CD3 and anti-albumin domains, part only) chain, part: EVQLVESGGGLVQPGGSLTLSCVASGSGSSINAMGWYRRAPGKQRELVAGISSDGSKVYSDSVKGRFTISRDNAKNSVYLQMNSLRAEDTAVYYCYYFRHVSGSSMRYWGQGTLVTVSSGGGGSGGGSGGGGSGGGSHHHHHH", "REPORTED RESULT": 8.05}

Incoming: # pKd lookup, item anti-DLL3 trispecific protein 1D03 (protein, part only; not given: CD3 binder and albumin binder, part only) chain, part: EVQLVESGGGLVQPGGSLTLSCVASGSTSSINAIGWYRRAPGKQRELVAGISSDGSKVLADSVKGRFTISRDNAKNSVYLQMNSLRAEDTAVYYCYYFRIVSGSSMGYWGQGTLVTVSSGGGGSGGGSGGGGSGGGSHHHHHH
Outgoing: 8.24
